# EXPERIMENT: Pharmacokinetics study of KPT-335 in cats (i.v. injection, p.o. capsules and tablets; UPLC-MS/MS, non-compartmental analysis)
# Type: in vivo
# CONDITIONS: both sexes, plasma, po, 1 mg/kg, cats, p.o., Capsule, Fasting, 1 mg/kg BW; read-out: Tmax
ENDPOINT_NAME: Tmax (h)

[[record]]
molecule = "O=C(/C=C\\n1cnc(-c2cc(C(F)(F)F)cc(C(F)(F)F)c2)n1)NNc1ccccn1 [KPT-335]"
endpoint_name = "Tmax"
unit_annotation = "h"
obs_value = 1.25


---

# EXPERIMENT: Pharmacokinetics study of KPT-335 in cats (i.v. injection, p.o. capsules and tablets; UPLC-MS/MS, non-compartmental analysis)
# Format: in vivo
# CONDITIONS: both sexes, cat, plasma, iv, 1 mg/kg, cats, i.v. 1 mg/kg BW, 0.75 h, mean
ENDPOINT_NAME: concentration at 0.75 h (ng/mL)

[[record]]
compound = "O=C(/C=C\\n1cnc(-c2cc(C(F)(F)F)cc(C(F)(F)F)c2)n1)NNc1ccccn1 [KPT-335]"
obs_value = 526


---

# EXPERIMENT: Pharmacokinetics study of KPT-335 in cats (i.v. injection, p.o. capsules and tablets; UPLC-MS/MS, non-compartmental analysis)
# Assay type: in vivo
# CONDITIONS: both sexes, cat, plasma, po, 1 mg/kg, cats, tablet p.o. 1 mg/kg BW after feeding, 12 h, mean
ENDPOINT_NAME: concentration at 12 h (ng/mL)

[[record]]
input_smiles = "O=C(/C=C\\n1cnc(-c2cc(C(F)(F)F)cc(C(F)(F)F)c2)n1)NNc1ccccn1"
endpoint_name = "concentration at 12 h"
unit_annotation = "ng/mL"
obs_value = 52.1


---

# EXPERIMENT: Pharmacokinetics study of KPT-335 in cats (i.v. injection, p.o. capsules and tablets; UPLC-MS/MS, non-compartmental analysis)
# Type: in vivo
# CONDITIONS: male, plasma, po, 1 mg/kg, male cats, p.o., Capsule, Fasting, 1 mg/kg BW; read-out: AUClast Value males
ENDPOINT_NAME: AUC(0-t) (µg·h/mL)

[[record]]
molecule = "O=C(/C=C\\n1cnc(-c2cc(C(F)(F)F)cc(C(F)(F)F)c2)n1)NNc1ccccn1 [KPT-335]"
endpoint_name = "AUC(0-t)"
unit_annotation = "µg·h/mL"
obs_value = 1.34


---

# EXPERIMENT: Pharmacokinetics study of KPT-335 in cats (i.v. injection, p.o. capsules and tablets; UPLC-MS/MS, non-compartmental analysis)
# Format: in vivo
# CONDITIONS: both sexes, cat, plasma, po, 1 mg/kg, cats, tablet p.o. 1 mg/kg BW after fasting, 0.5 h, mean
ENDPOINT_NAME: concentration at 0.5 h

[[record]]
molecule = "O=C(/C=C\\n1cnc(-c2cc(C(F)(F)F)cc(C(F)(F)F)c2)n1)NNc1ccccn1 [KPT-335]"
obs_value = "204 ng/mL"


---

# EXPERIMENT: Pharmacokinetics study of KPT-335 in cats (i.v. injection, p.o. capsules and tablets; UPLC-MS/MS, non-compartmental analysis)
# Format: in vivo
# CONDITIONS: both sexes, cat, plasma, po, 1 mg/kg, cats, tablet p.o. 1 mg/kg BW after fasting, 4 h, mean; read-out: Plasma concentration Mean
ENDPOINT_NAME: concentration at 4 h (ng/mL)

[[record]]
input_smiles = "O=C(/C=C\\n1cnc(-c2cc(C(F)(F)F)cc(C(F)(F)F)c2)n1)NNc1ccccn1"
obs_value = 187

